# test: Liver Microsome Stability Assay (human)
# condition.set: human liver microsomes, with NADPH, 1.0 uM compound
Rule for this label: yes (1) means Liver Microsome Stability (Multiple Species): Human - % Remaining after 30 min w/NADPH is less than 0.6%; no (0) means Liver Microsome Stability (Multiple Species): Human - % Remaining after 30 min w/NADPH is at least 0.6%.

Worked cases, answers included:
# compound, class.name
records = [
    ("O=C(Nc1nc(C2Cc3cccnc3C2)cs1)c1cccn1Cc1ccncc1 (stereo not shown) [Compound E37]", "yes (1)"),
    ("N#CCCn1cnc(/C=C/c2csc(NC(=O)c3cccn3Cc3ccnc(F)c3)n2)c1 [Compound B108]", "yes (1)"),
    ("CC(=O)N1CCC[C@@H](Oc2ccc(N3CCC[C@@H]3c3csc(NC(=O)c4cccn4Cc4ccnc(F)c4)n3)cc2)C1 [Compound A83]", "no (0)"),
    ("Cc1cccc(/C=C/c2csc(NC(=O)c3cccn3Cc3ccnc(F)c3)n2)n1 [Compound B59]", "yes (1)"),
    ("CC(C)c1cc(/C=C/c2csc(NC(=O)c3cccn3Cc3ccnc(F)c3)n2)n(C)n1 [Compound B94]", "yes (1)"),
    ("Cn1cccc1C(=O)Nc1nc([C@H]2CCCN2c2ccccc2)cs1 [Compound C17]", "no (0)"),
]

Inquiry: Below 0.6% on Liver Microsome Stability (Multiple Species): Human - % Remaining after 30 min w/NADPH? Entry CC(=O)N1CCC(Oc2ccc(N3CCC[C@@H]3c3csc(NC(=O)c4cccn4Cc4ccnc(F)c4)n3)cc2)C(F)C1 (stereo partly shown) [Compound A108]
Reply text: no (0)

Inquiry: Below 0.6% on Liver Microsome Stability (Multiple Species): Human - % Remaining after 30 min w/NADPH? Entry N#Cc1cccc(Cn2cccc2C(=O)Nc2nc([C@H]3CCCN3c3ccccc3)cs2)c1 [Compound C49]
Reply text: no (0)

Inquiry: Below 0.6% on Liver Microsome Stability (Multiple Species): Human - % Remaining after 30 min w/NADPH? Entry CC(CCC#N)n1cccc1C(=O)Nc1nc([C@H]2CCCN2c2ccccc2)cs1 (stereo partly shown) [Compound C90]
Reply text: no (0)

Inquiry: Below 0.6% on Liver Microsome Stability (Multiple Species): Human - % Remaining after 30 min w/NADPH? Entry O=C1CCc2cc(N3CCC[C@@H]3c3csc(NC(=O)c4cccn4Cc4ccncc4)n3)ccc2N1 [Compound A75]
Reply text: no (0)

Inquiry: Below 0.6% on Liver Microsome Stability (Multiple Species): Human - % Remaining after 30 min w/NADPH? Entry COc1ccc(O[C@H]2CC[C@@H](c3csc(NC(=O)c4cccn4Cc4ccncc4)n3)CC2)nc1 [Compound E35]
Reply text: yes (1)

Inquiry: Below 0.6% on Liver Microsome Stability (Multiple Species): Human - % Remaining after 30 min w/NADPH? Entry O=C(Nc1ccc(N2CCC[C@@H]2c2csc(NC(=O)c3cccn3Cc3ccnc(F)c3)n2)cc1)O[C@H]1CCOC1 [Compound A174]
Reply text: no (0)

Inquiry: Below 0.6% on Liver Microsome Stability (Multiple Species): Human - % Remaining after 30 min w/NADPH? Entry Cc1cc(C(=O)Nc2nc([C@H]3CCCN3c3ccc(OC4CCN(C(N)=O)CC4)cc3)cs2)n(Cc2ccnc(F)c2)c1 [Compound A166]
Reply text: no (0)

Inquiry: Below 0.6% on Liver Microsome Stability (Multiple Species): Human - % Remaining after 30 min w/NADPH? Entry O=C(Nc1nc(/C=C/c2coc(C3CCCCC3)n2)cs1)c1cccn1Cc1ccncc1 [Compound B39]
Reply text: yes (1)

Inquiry: Below 0.6% on Liver Microsome Stability (Multiple Species): Human - % Remaining after 30 min w/NADPH? Entry O=C(Nc1nc(CC2CCCCO2)cs1)c1cccn1Cc1ccncc1 (stereo not shown) [Compound E9]
Reply text: no (0)

Inquiry: Below 0.6% on Liver Microsome Stability (Multiple Species): Human - % Remaining after 30 min w/NADPH? Entry O=C(Nc1nc(/C=C/c2cn(C3CCOCC3)cn2)cs1)c1cccn1Cc1ccnc(F)c1 [Compound B92]
Reply text: yes (1)

Inquiry: Below 0.6% on Liver Microsome Stability (Multiple Species): Human - % Remaining after 30 min w/NADPH? Entry CNS(=O)(=O)N1CC(Oc2ccc(N3CCC[C@@H]3c3csc(NC(=O)c4cccn4Cc4ccnc(F)c4)n3)cc2)C1 [Compound A151]
Reply text: no (0)

Inquiry: Below 0.6% on Liver Microsome Stability (Multiple Species): Human - % Remaining after 30 min w/NADPH? Entry CC(C)c1ccc(/C=C/c2csc(NC(=O)c3cccn3Cc3cc(F)nc(F)c3)n2)nc1 [Compound B87]
Reply text: yes (1)

Inquiry: Below 0.6% on Liver Microsome Stability (Multiple Species): Human - % Remaining after 30 min w/NADPH? Entry Cc1ccc(S(=O)(=O)N(C(=O)c2cccn2Cc2ccncc2)c2nc([C@H]3CCCN3S(=O)(=O)c3ccc(C)cc3)cs2)cc1 [Compound E52]
Reply text: yes (1)

Inquiry: Below 0.6% on Liver Microsome Stability (Multiple Species): Human - % Remaining after 30 min w/NADPH? Entry O=C(Nc1nc([C@H]2CCCN2c2ccccc2)cs1)c1cccn1Cc1cnn[nH]1 [Compound C29]
Reply text: no (0)

Inquiry: Below 0.6% on Liver Microsome Stability (Multiple Species): Human - % Remaining after 30 min w/NADPH? Entry O=C(Nc1nc([C@H]2CCCN2c2ccc(OC3CCNC3)cc2)cs1)c1cccn1Cc1ccnc(F)c1 (stereo partly shown) [Compound A80]
Reply text: no (0)

Inquiry: Below 0.6% on Liver Microsome Stability (Multiple Species): Human - % Remaining after 30 min w/NADPH? Entry O=C(Nc1nc(CCc2ccccn2)cs1)c1cccn1Cc1ccncc1 [Compound E8]
Reply text: yes (1)

Inquiry: Below 0.6% on Liver Microsome Stability (Multiple Species): Human - % Remaining after 30 min w/NADPH? Entry O=C(Nc1nc([C@H]2CCCN2c2ccncc2)cs1)c1cccn1Cc1ccncc1 [Compound E48]
Reply text: no (0)

Inquiry: Below 0.6% on Liver Microsome Stability (Multiple Species): Human - % Remaining after 30 min w/NADPH? Entry Cc1ccc(/C=C/c2csc(NC(=O)c3cccn3Cc3ccncc3)n2)nc1F [Compound B48]
Reply text: no (0)
